Just for reference, patent US20080119462A1 is where these values come from.

Target: Rat plasma SSAO (Rattus norvegicus)
Construct: The enzyme suspension prepared from blood plasma was pre-incubated with Compound A
Sequence (O08590 27-763 limits assumed): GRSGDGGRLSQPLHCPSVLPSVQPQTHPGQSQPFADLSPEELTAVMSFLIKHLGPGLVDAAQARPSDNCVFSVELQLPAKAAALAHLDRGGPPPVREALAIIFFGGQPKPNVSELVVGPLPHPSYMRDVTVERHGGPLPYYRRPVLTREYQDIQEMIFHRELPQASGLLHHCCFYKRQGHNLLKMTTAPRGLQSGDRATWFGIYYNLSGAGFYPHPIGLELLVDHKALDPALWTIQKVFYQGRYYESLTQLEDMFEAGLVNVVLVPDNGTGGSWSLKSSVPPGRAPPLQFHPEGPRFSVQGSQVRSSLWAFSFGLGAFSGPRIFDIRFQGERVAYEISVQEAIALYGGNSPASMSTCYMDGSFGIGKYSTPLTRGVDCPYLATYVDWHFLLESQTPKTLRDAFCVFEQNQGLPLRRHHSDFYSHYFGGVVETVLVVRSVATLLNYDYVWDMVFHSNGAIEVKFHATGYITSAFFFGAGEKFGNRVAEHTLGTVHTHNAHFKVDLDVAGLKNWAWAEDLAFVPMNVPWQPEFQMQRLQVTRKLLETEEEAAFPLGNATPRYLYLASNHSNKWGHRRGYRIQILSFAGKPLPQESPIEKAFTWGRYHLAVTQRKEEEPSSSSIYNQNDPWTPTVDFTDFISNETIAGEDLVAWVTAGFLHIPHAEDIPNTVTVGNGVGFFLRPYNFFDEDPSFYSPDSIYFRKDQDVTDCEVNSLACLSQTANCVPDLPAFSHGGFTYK
Test: Radiochemical-enzyme assay of VAP-1 enzyme (SSAO) activity with 14C-benzylamine, rat plasma
Settings: 30 min pre-incubation; 14C-benzylamine 2×10^−5 mol/l, 37° C., 1 hour; read-out: Inhibitory effect (IC50 values) Rat plasma SSAO
quantity-name: pIC50
Conceptually, pIC50 converts a concentration in mol/L into minus its log10.

Inquiry: Using the record for CC(=O)Nc1nc(CCc2ccc(NC(=N)N)cc2)cs1 [Compound A] , report its pIC50.
Reply text: 7.92

---

Biological target: Human plasma SSAO (Homo sapiens, UniProt Q16853)
Construct: The enzyme suspension prepared from blood plasma was pre-incubated with Compound A
Sequence (Q16853 27-763 limits assumed): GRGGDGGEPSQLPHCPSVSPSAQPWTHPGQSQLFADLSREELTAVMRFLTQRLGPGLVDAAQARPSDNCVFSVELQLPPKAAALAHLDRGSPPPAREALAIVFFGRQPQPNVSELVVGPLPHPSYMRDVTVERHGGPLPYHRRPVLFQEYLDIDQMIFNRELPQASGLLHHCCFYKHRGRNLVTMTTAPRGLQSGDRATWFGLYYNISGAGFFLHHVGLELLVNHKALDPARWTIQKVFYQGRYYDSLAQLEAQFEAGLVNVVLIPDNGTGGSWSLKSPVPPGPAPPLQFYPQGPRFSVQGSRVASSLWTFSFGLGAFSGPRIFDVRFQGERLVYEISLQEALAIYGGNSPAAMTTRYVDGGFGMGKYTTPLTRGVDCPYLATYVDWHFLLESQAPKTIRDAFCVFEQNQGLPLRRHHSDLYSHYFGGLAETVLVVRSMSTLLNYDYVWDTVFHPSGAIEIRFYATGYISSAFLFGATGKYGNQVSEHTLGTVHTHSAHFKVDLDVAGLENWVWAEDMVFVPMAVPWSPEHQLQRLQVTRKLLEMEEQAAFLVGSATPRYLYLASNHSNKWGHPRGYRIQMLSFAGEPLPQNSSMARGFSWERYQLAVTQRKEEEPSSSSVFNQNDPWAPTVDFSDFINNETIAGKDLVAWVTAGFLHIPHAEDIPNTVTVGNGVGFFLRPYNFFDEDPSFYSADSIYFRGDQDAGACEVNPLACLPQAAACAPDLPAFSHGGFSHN
Assay: Radiochemical-enzyme assay of VAP-1 enzyme (SSAO) activity with 14C-benzylamine, human plasma
Conditions: 30 min pre-incubation; 14C-benzylamine 2×10^−5 mol/l, 37° C., 1 hour; read-out: Inhibitory effect (IC50 values) Human plasma SSAO
Experimental: VAP-1 enzyme (SSAO) activity in both human and rat plasma was determined by a radiochemical-enzyme assay using ^14C-benzylamine as artificial substrate. […] The oxidized products were directly extracted into a 200 μl toluene scintillator, and its radioactivity was measured by a scintillation spectrometer. Monoamine oxidase (MAO) and diamine oxidase (DAO, histaminase) activities were also determined by similar method using ^14C-phenylethylamine and ^14C-putrescine as substrate, respectively. […]
quantity-name: IC50 (nM)
# output: bare number, implied unit nM

Inquiry: Using the record for CC(=O)Nc1nc(CCc2ccc(NC(=N)N)cc2)cs1 , report its IC50.
Reply text: 150
